TARGET_SYSTEM: 5HT2B receptors (Homo sapiens)
Construct: expressed in transfected cells; host or cells: CHO-K1 cells
Sequence (P41595 whole entry): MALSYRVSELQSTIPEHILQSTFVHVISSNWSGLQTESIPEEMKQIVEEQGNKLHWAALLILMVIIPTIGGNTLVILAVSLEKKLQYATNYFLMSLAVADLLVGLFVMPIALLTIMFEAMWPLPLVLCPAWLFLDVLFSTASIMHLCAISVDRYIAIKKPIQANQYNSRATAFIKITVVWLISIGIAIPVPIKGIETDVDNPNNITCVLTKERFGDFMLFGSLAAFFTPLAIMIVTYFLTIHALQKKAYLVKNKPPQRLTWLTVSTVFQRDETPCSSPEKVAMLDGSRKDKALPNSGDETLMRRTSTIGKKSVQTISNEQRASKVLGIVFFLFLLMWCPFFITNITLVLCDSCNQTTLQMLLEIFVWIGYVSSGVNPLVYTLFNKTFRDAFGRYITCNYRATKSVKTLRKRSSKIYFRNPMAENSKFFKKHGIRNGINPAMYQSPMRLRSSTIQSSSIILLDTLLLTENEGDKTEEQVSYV
TEST_DETAILS: Human 5-HT2B functional high throughput screening assay in CHO-K1 cells (calcium flux)
Type: cell-based
CONDITION: EC50, 5-HT2B agonist activity; CHO-K1 cells; calcium flux
pEC50: −log10 of the molar value.
# pEC50 annotations
OBSERVED_PROPERTY: pEC50

{"MOLECULE": "O=S(=O)(c1ccc(Cl)cc1)N1Cc2cccnc2[C@@H]2CNC[C@H]2C1 (relative stereo) [Example 340]", "OBSERVED_PROPERTY": "pEC50", "RESULT": "< 5.00"}
{"MOLECULE": "CC(C)COc1ccc2c(c1)C(=O)NC[C@@H]1CNC[C@@H]21 [Example 309]", "OBSERVED_PROPERTY": "pEC50", "RESULT": "< 5.00"}
{"MOLECULE": "O=C1NC[C@@H]2CNC[C@H]2c2cc3c(cc21)CCCC3 (relative stereo) [Example 258]", "OBSERVED_PROPERTY": "pEC50", "RESULT": "< 5.00"}
{"MOLECULE": "O=C1NC[C@@H]2CNC[C@H]2c2ccc(OCc3ccccc3F)cc21 [Example 180]", "OBSERVED_PROPERTY": "pEC50", "RESULT": "< 5.00"}
{"MOLECULE": "Nc1ccc2c(c1)C(=O)NC[C@@H]1CNC[C@H]21 (relative stereo) [Example 145]", "OBSERVED_PROPERTY": "pEC50", "RESULT": "< 5.00"}
{"MOLECULE": "CN1C[C@@H]2CNC(=O)c3cc(OCC4CC4)ccc3[C@H]2C1 [Example 277]", "OBSERVED_PROPERTY": "pEC50", "RESULT": "< 5.00"}
{"MOLECULE": "CN1C[C@H]2CNC(=O)c3cc(C4=CCCC4)ccc3[C@@H]2C1 (relative stereo) [Example 201]", "OBSERVED_PROPERTY": "pEC50", "RESULT": "< 5.00"}
{"MOLECULE": "O=C1NC[C@@H]2CNC[C@H]2c2ncccc21 (relative stereo) [Example 153]", "OBSERVED_PROPERTY": "pEC50", "RESULT": "< 5.00"}
{"MOLECULE": "C[C@@H](Oc1ccc2c(c1)C(=O)NC[C@@H]1CNC[C@@H]21)c1ccccc1 (mixture of isomers) [Example 150]", "OBSERVED_PROPERTY": "pEC50", "RESULT": "< 5.00"}
{"MOLECULE": "O=C1NC[C@@H]2CN(Cc3ccccc3)C[C@H]2c2ccc(F)cc21 (relative stereo) [Example 55]", "OBSERVED_PROPERTY": "pEC50", "RESULT": "< 5.00"}
{"MOLECULE": "CN1C[C@H]2CNC(=O)c3cc(OCc4ccccc4)ccc3[C@@H]2C1 (relative stereo) [Example 216]", "OBSERVED_PROPERTY": "pEC50", "RESULT": "< 5.00"}
{"MOLECULE": "CN1C[C@@H]2CNC(=O)c3cc(OCc4ccccc4)ccc3[C@H]2C1 [Example 274]", "OBSERVED_PROPERTY": "pEC50", "RESULT": "< 5.00"}
{"MOLECULE": "CC(C)CCOc1ccc2c(c1)C(=O)NC[C@@H]1CNC[C@@H]21 (relative stereo) [Example 169]", "OBSERVED_PROPERTY": "pEC50", "RESULT": "< 5.00"}
{"MOLECULE": "O=S(=O)(c1cccc(F)c1)N1Cc2cccnc2[C@@H]2CNC[C@H]2C1 (relative stereo) [Example 337]", "OBSERVED_PROPERTY": "pEC50", "RESULT": 6.00}
{"MOLECULE": "O=C1NC[C@@H]2CNC[C@H]2c2c1sc1ccccc21 (relative stereo) [Example 99]", "OBSERVED_PROPERTY": "pEC50", "RESULT": 6.00}
{"MOLECULE": "Cc1cccc(S(=O)(=O)N2Cc3cccnc3[C@@H]3CNC[C@H]3C2)c1 (relative stereo) [Example 348]", "OBSERVED_PROPERTY": "pEC50", "RESULT": 6.10}
{"MOLECULE": "Clc1ccc2c(c1)[C@@H]1CNC[C@H]1CCN2 (relative stereo) [Example 391]", "OBSERVED_PROPERTY": "pEC50", "RESULT": 7.70}
{"MOLECULE": "CN1C[C@@H]2CNC[C@H]2c2ccc(F)cc2C1=O (relative stereo) [Example 224]", "OBSERVED_PROPERTY": "pEC50", "RESULT": 5.22}
